System: Wistar male rats
Assay: Flexor reflex in spinalized rats
Assay type: in vivo
Design: key: area under % amplitude vs. time line over 60 min (pre-dose = 100%)
Details: intravenous administration at the dose of 0.3 mg/kg (footnote *); covering 60 minutes; pre-dose amplitude = 100%
Procedure: Flexor reflex in spinalized rats Wistar male rats (weighing 450 - 520 g) were anesthetized with ether, and the cervical part of spinal cord was exposed, into which a tracheal cannula was inserted. The vagus nerves were severed bilaterally at the cervical region. […] The flexor reflex was recorded on the polygraph via a force-displacement transducer. […] Thereafter, the reaction was recorded for 1 hour. […]
Please respond with reported Area below the reflex amplitude linking line for every item in the list.
Numbers only.

Below: 3 compounds and their reported Area below the reflex amplitude linking line.
INSERT INTO assay_data (compound, result) VALUES
  ('C[C@H]1CC(=O)C[C@H]1C(=O)N[C@@H](Cc1c[nH]cn1)C(=O)N1CCC[C@H]1C(N)=O (mixture of isomers)', 19114),
  ('CC1(C)CC(=O)CC1C(=O)N[C@@H](Cc1c[nH]cn1)C(=O)N1CCC[C@H]1C(N)=O (stereo partly shown)', 14294),
  ('NC(=O)C1CCCN1C(=O)C(Cc1c[nH]cn1)NC(=O)C1CCC(=O)O1 (stereo not shown) [DN1417, reference compound]', 8152);

Consider the additional compound presented here.
Suppose we examine the compound C[C@@H]1CC(=O)C[C@H]1C(=O)N[C@@H](Cc1c[nH]cn1)C(=O)N1CCC[C@H]1C(N)=O (mixture of isomers) ; what Area below the reflex amplitude linking line value has been reported?
10355
